Assignment: determine reported solubility at 0.25 h for the given compounds.
- ASSAY_METHOD_TEXT: Solubility of the compound in 0.5 ml of distilled water after 15 mins by RP-HPLC analysis
- Assay type: physicochemical
One number for each entry, in µg/mL.

Worked examples follow.
Any idea what solubility at 0.25 h was measured for CC(=O)O[C@H]1C(=O)[C@]2(C)[C@@H](OC(=O)OCCSSCCOC(=O)CCC(=O)O)C[C@H]3OC[C@@]3(OC(C)=O)[C@H]2[C@H](OC(=O)c2ccccc2)[C@]2(O)C[C@H](OC(=O)[C@H](OC(=O)OCCSSCCOC(=O)CCC(=O)O)[C@@H](NC(=O)c3ccccc3)c3ccccc3)C(C)=C1C2(C)C ?
96

Requested read-out: solubility at 0.25 h. Entry: CC(=O)O[C@H]1C(=O)[C@]2(C)[C@@H](OC(=O)OCCSSCCO)C[C@H]3OC[C@@]3(OC(C)=O)[C@H]2[C@H](OC(=O)c2ccccc2)[C@]2(O)C[C@H](OC(=O)[C@H](OC(=O)OCCSSCCO)[C@@H](NC(=O)c3ccccc3)c3ccccc3)C(C)=C1C2(C)C
36

Would you mind telling me what solubility at 0.25 h value was observed for CC(=O)O[C@H]1C(=O)[C@]2(C)[C@@H](OC(=O)OCCSSCCN)C[C@H]3OC[C@@]3(OC(C)=O)[C@H]2[C@H](OC(=O)c2ccccc2)[C@]2(O)C[C@H](OC(=O)[C@H](OC(=O)OCCSSCCN)[C@@H](NC(=O)c3ccccc3)c3ccccc3)C(C)=C1C2(C)C ?
400

Let us move to another entry and its solubility at 0.25 h.
Value lookup for solubility at 0.25 h; key = CC(=O)O[C@H]1C(=O)[C@@]2(C)[C@H]([C@H](OC(=O)c3ccccc3)[C@]3(O)C[C@H](OC(=O)[C@H](OC(=O)OCCSSCCOC(=O)[C@H](C)N)[C@@H](NC(=O)c4ccccc4)c4ccccc4)C(C)=C1C3(C)C)[C@]1(OC(C)=O)CO[C@@H]1C[C@@H]2O
330
